All values here come from ChEMBL document CHEMBL3286360.

tested on: Candida albicans; experiment: Antimicrobial activity against Candida albicans ATCC 14053 after 17 to 20 hrs by serial dilution method; format: functional
Where a SMILES comes first, the peptide text is derived from it. The star is where a group is joined. Stearoyl = CCCCCCCCCCCCCCCCCC(=O)*; Myristoyl = CCCCCCCCCCCCCC(=O)*; Decanoyl = CCCCCCCCCC(=O)*

compound: CCCCCCCCCC(=O)N[C@@H](CCCNC(=N)N)C(=O)N[C@@H](Cc1c[nH]c2ccccc12)C(=O)N[C@@H](CCCNC(=N)N)C(N)=O (Decanoyl-Arg-Trp-Arg-NH2)
MIC: > 62.5 µg/mL
//
compound: CCCCCCCCCCCCCCCCCC(=O)N[C@@H](CCCCN)C(=O)N[C@@H](CCCNC(=N)N)C(=O)N[C@H](C(=O)N[C@@H](Cc1c[nH]c2ccccc12)C(=O)N[C@@H](Cc1c[nH]c2ccccc12)C(=O)N[C@@H](CCCNC(=N)N)C(N)=O)[C@@H](C)CC (Stearoyl-KRIWWR-NH2)
MIC: > 62.5 µg/mL
//
compound: CCCCCCCCCCCCCCCCCC(=O)N[C@@H](CCCNC(=N)N)C(=O)N[C@H](C(=O)N[C@@H](CCCCN)C(=O)N[C@@H](Cc1c[nH]c2ccccc12)C(=O)N[C@@H](CCCCN)C(N)=O)[C@@H](C)CC (Stearoyl-RIKWK-NH2)
MIC: > 62.5 µg/mL
//
compound: CCCCCCCCCCCCCC(=O)N[C@@H](CCCCN)C(=O)N[C@@H](Cc1c[nH]c2ccccc12)C(=O)N[C@@H](CCCCN)C(N)=O (Myristoyl-Lys-Trp-Lys-NH2)
MIC: > 62.5 µg/mL
//
compound: CCCCCCCCCCCCCC(=O)N[C@@H](CCCCN)C(=O)N[C@@H](CCCCN)C(=O)N[C@@H](Cc1c[nH]c2ccccc12)C(=O)N[C@@H](Cc1c[nH]c2ccccc12)C(N)=O (Myristoyl-KKWW-NH2)
MIC: 15.6 µg/mL
//
compound: CCCCCCCCCCCCCCCCCC(=O)N[C@@H](CCCCN)C(=O)N[C@H](C(=O)N[C@@H](Cc1c[nH]c2ccccc12)C(=O)N[C@@H](Cc1c[nH]c2ccccc12)C(=O)N[C@@H](CCCCN)C(N)=O)[C@@H](C)CC (Stearoyl-KIWWK-NH2)
MIC: > 62.5 µg/mL
//
compound: CCCCCCCCCC(=O)N[C@@H](CCCCN)C(=O)N[C@H](C(=O)N[C@@H](Cc1c[nH]c2ccccc12)C(=O)N[C@@H](Cc1c[nH]c2ccccc12)C(=O)N[C@@H](CCCCN)C(N)=O)[C@@H](C)CC (Decanoyl-KIWWK-NH2)
MIC: 15.6 µg/mL
//
compound: CCCCCCCCCC(=O)N[C@@H](CCCCN)C(=O)N[C@@H](CCCNC(=N)N)C(=O)N[C@H](C(=O)N[C@@H](Cc1c[nH]c2ccccc12)C(=O)N[C@@H](Cc1c[nH]c2ccccc12)C(=O)N[C@@H](CCCNC(=N)N)C(N)=O)[C@@H](C)CC (Decanoyl-KRIWWR-NH2)
MIC: > 62.5 µg/mL
//
compound: CCCCCCCCCC(=O)N[C@@H](CCCCN)C(=O)N[C@@H](Cc1c[nH]c2ccccc12)C(=O)N[C@@H](CCCCN)C(N)=O (Decanoyl-Lys-Trp-Lys-NH2)
MIC: > 62.5 µg/mL
//
compound: CCCCCCCCCCCCCC(=O)N[C@@H](CCCNC(=N)N)C(=O)N[C@H](C(=O)N[C@@H](CCCCN)C(=O)N[C@@H](Cc1c[nH]c2ccccc12)C(=O)N[C@@H](Cc1c[nH]c2ccccc12)C(=O)N[C@@H](CCCCN)C(N)=O)[C@@H](C)CC (Myristoyl-RIKWWK-NH2)
MIC: > 62.5 µg/mL
//
compound: CCCCCCCCCCCCCCCCCC(=O)N[C@@H](CCCCN)C(=O)N[C@@H](CCCCN)C(=O)N[C@@H](Cc1c[nH]c2ccccc12)C(=O)N[C@@H](CCCCN)C(N)=O (Stearoyl-KKWK-NH2)
MIC: 31.2 µg/mL
//
compound: CCCCCCCCCC(=O)N[C@@H](CCCCN)C(=O)N[C@@H](Cc1c[nH]c2ccccc12)C(=O)N[C@@H](Cc1c[nH]c2ccccc12)C(=O)N[C@@H](CCCCN)C(N)=O (Decanoyl-KWWK-NH2)
MIC: 31.2 µg/mL
//
compound: CCCCCCCCCCCCCC(=O)N[C@@H](CCCCN)C(=O)N[C@@H](Cc1c[nH]c2ccccc12)C(=O)N[C@@H](CCCCN)C(=O)N[C@@H](Cc1c[nH]c2ccccc12)C(N)=O (Myristoyl-KWKW-NH2)
MIC: > 62.5 µg/mL
//
compound: CCCCCCCCCCCCCCCCCC(=O)N[C@@H](CCCNC(=N)N)C(=O)N[C@H](C(=O)N[C@@H](CCCCN)C(=O)N[C@@H](Cc1c[nH]c2ccccc12)C(=O)N[C@@H](Cc1c[nH]c2ccccc12)C(=O)N[C@@H](CCCCN)C(N)=O)[C@@H](C)CC (Stearoyl-RIKWWK-NH2)
MIC: > 62.5 µg/mL
//
compound: CCCCCCCCCCCCCC(=O)N[C@@H](CCCCN)C(=O)N[C@@H](CCCNC(=N)N)C(=O)N[C@H](C(=O)N[C@@H](Cc1c[nH]c2ccccc12)C(=O)N[C@@H](Cc1c[nH]c2ccccc12)C(=O)N[C@@H](CCCNC(=N)N)C(N)=O)[C@@H](C)CC (Myristoyl-KRIWWR-NH2)
MIC: > 62.5 µg/mL
//
compound: CCCCCCCCCCCCCC(=O)N[C@@H](CCCCN)C(=O)N[C@@H](CCCCN)C(=O)N[C@H](C(=O)N[C@@H](CCCNC(=N)N)C(=O)N[C@@H](Cc1c[nH]c2ccccc12)C(=O)N[C@@H](CCCNC(=N)N)C(N)=O)[C@@H](C)CC (Myristoyl-KKIRWR-NH2)
MIC: > 62.5 µg/mL
//
compound: CCCCCCCCCC(=O)N[C@@H](CCCCN)C(=O)N[C@H](C(=O)N[C@@H](CCCCN)C(=O)N[C@@H](CCCNC(=N)N)C(=O)N[C@@H](Cc1c[nH]c2ccccc12)C(=O)N[C@@H](Cc1c[nH]c2ccccc12)C(=O)N[C@@H](CCCNC(=N)N)C(N)=O)[C@@H](C)CC (Decanoyl-KIKRWWR-NH2)
MIC: > 62.5 µg/mL
